Listed here: items and their measured % Inhib CDK4/D @ 1 μM.
Target: CDK4/cyclin D3 (Homo sapiens, UniProt P11802)
Construct: made in house; host or cells: insect cells (baculovirus co-infection)
Sequence (P11802 whole entry): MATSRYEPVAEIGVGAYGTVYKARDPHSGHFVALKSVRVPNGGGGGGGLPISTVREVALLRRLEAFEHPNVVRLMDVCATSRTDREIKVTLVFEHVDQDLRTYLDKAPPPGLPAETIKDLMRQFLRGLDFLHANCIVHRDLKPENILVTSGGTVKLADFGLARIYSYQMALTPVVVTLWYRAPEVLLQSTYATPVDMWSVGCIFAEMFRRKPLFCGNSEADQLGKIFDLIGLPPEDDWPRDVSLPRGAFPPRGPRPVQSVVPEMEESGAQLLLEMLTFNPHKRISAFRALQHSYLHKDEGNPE
Sequence (P30281 1-264 partner limits assumed): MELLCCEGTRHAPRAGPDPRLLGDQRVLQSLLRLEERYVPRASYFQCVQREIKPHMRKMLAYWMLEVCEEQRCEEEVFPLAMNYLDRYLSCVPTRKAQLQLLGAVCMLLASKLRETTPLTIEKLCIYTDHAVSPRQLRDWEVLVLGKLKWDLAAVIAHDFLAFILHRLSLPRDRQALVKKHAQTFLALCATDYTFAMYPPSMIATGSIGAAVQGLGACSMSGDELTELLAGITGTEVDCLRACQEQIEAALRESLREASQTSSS
Assay: Inhibition of CDK4/Cyclin D retinoblastoma kinase activity;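 on % Inhib CDK4/D @ 1 μM: relative to DMSO control wells without compound minus no-enzyme background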
Type: biochemical
Settings: test compound at 1 μM (head line shifted: 'mM' printed beside 'Structure'); 1 µM
Give the number; % is assumed, so skip it.

>>> result("CC(C)=CCS(=O)(=O)c1ccc(Nc2nc(N)c(C(=O)c3c(Cl)cccc3Cl)s2)cc1 [DD(224)]")
9.8
>>> result("COCCS(=O)(=O)c1ccc(Nc2nc(N)c(C(=O)c3c(Cl)cccc3Cl)s2)cc1 [DD(214)]")
60.6

Input line: Which % Inhib CDK4/D @ 1 μM is reported for this molecule? Nc1nc(Nc2ccc([S+]([O-])CCO)cc2)sc1C(=O)c1c(Cl)cccc1Cl (centres unmarked) [DD(110)]
Output line: 28.9

Input line: Which % Inhib CDK4/D @ 1 μM is reported for this molecule? Nc1nc(Nc2ccc(S(=O)(=O)CC3CC3)cc2)sc1C(=O)c1c(Cl)cccc1Cl [DD(216)]
Output line: 47.1

###

Biological target: CDK4/cyclin D3 (Homo sapiens)
Construct: made in house; host or cells: insect cells (baculovirus co-infection)
Experiment: Inhibition of CDK4/Cyclin D retinoblastoma kinase activity
Format: biochemical
Settings: test compound at 0.1 μM; read-out: % Inhib CDK4/D @ 0.1 μM
Procedure: Cyclin-dependent kinase activity was measured by quantifying the enzyme-catalyzed, time-dependent incorporation of radioactive phosphate from [^32P]ATP or [^33P]ATP into a protein substrate. […] The phosphorylated substrate was then captured on a nitrocellulose or phosphocellulose membrane using a 96-well filtration manifold, and unincorporated radioactivity was removed by repeated washing with 0.85% phosphoric acid. Radioactivity was quantified by exposing the dried membranes to a phosphorimager. […]
Observable: inhibition at 0.1 µM (%)
Give the number; % is assumed, so skip it.

>>> result("CC(C)OC(=O)CC[S+]([O-])c1cccc(Nc2nc(N)c(C(=O)c3c(Cl)cccc3Cl)s2)c1 (centres unmarked) [DD(158)]")
27
>>> result("CN(C)CCCS(=O)(=O)c1ccc(N(C)c2nc(N)c(C(=O)c3c(Cl)cccc3Cl)s2)cc1 [DD(210)]")
21
>>> result("Nc1nc(Nc2ccc(SCC3CO3)cc2)sc1C(=O)c1c(Cl)cccc1Cl (centres unmarked) [DD(12)]")
19

Input line: Which inhibition at 0.1 µM is reported for this molecule? CC(CN(C)C)CS(=O)(=O)c1ccc(Nc2nc(N)c(C(=O)c3c(Cl)cccc3Cl)s2)cc1 (centres unmarked) [DD(163)]
Output line: 27

Input line: Which inhibition at 0.1 µM is reported for this molecule? Nc1nc(Nc2ccc(S(=O)(=O)Cc3ccccc3)cc2)sc1C(=O)c1c(Cl)cccc1Cl [DD(195)]
Output line: 25

Input line: Which inhibition at 0.1 µM is reported for this molecule? CC(=O)OCC[S+]([O-])c1cccc(Nc2nc(N)c(C(=O)c3c(Cl)cccc3Cl)s2)c1 (centres unmarked) [DD(157)]
Output line: 42

Input line: Which inhibition at 0.1 µM is reported for this molecule? Nc1nc(Nc2ccc(S(=O)(=O)CC(=O)Nc3ccccc3)cc2)sc1C(=O)c1c(Cl)cccc1Cl [DD(175)]
Output line: 23

Input line: Which inhibition at 0.1 µM is reported for this molecule? CCN(CC)C(=O)C[S+]([O-])c1cccc(Nc2nc(N)c(C(=O)c3c(Cl)cccc3Cl)s2)c1 (centres unmarked) [DD(121)]
Output line: 41

Input line: Which inhibition at 0.1 µM is reported for this molecule? Nc1nc(Nc2cccc(SCCN3CCCCC3)c2)sc1C(=O)c1c(Cl)cccc1Cl [DD(51)]
Output line: 30

Input line: Which inhibition at 0.1 µM is reported for this molecule? Nc1nc(Nc2cccc([S+]([O-])CCO)c2)sc1C(=O)c1c(Cl)cccc1Cl (centres unmarked) [DD(149)]
Output line: 55

Input line: Which inhibition at 0.1 µM is reported for this molecule? Nc1nc(Nc2ccc([S+]([O-])CCN3CCOCC3)cc2)sc1C(=O)c1c(Cl)cccc1Cl (centres unmarked) [DD(119)]
Output line: 36

Input line: Which inhibition at 0.1 µM is reported for this molecule? Nc1nc(Nc2ccc(S(=O)(=O)CCN3CCCCC3)cc2)sc1C(=O)c1c(Cl)cccc1Cl [DD(171)]
Output line: 21

Input line: Which inhibition at 0.1 µM is reported for this molecule? COC(=O)C[S+]([O-])c1cccc(Nc2nc(N)c(C(=O)c3c(Cl)cccc3Cl)s2)c1 (centres unmarked) [DD(146)]
Output line: 53

Input line: Which inhibition at 0.1 µM is reported for this molecule? Nc1nc(Nc2ccc(SCc3ccncc3)cc2)sc1C(=O)c1c(Cl)cccc1Cl [DD(35)]
Output line: 42

###

Target: CDK4/cyclin D3 (Homo sapiens, UniProt P11802)
Construct: made in house; host or cells: insect cells (baculovirus co-infection)
Test: Inhibition of CDK4/Cyclin D retinoblastoma kinase activity
Format: biochemical
Details: test compound at 0.1 μM; read-out: % Inhib CDK4/D @ 0.1 μM
Would you mind labelling by inhibition at 0.1 µM? At or over 30% is yes (1), under is no (0).

Previously resolved entries follow.
>>> assigned_class("Nc1nc(Nc2cccc([S+]([O-])CCN3CCCC3)c2)sc1C(=O)c1c(Cl)cccc1Cl (stereo not shown) [DD(127)]")
"yes (1)"
>>> assigned_class("Nc1nc(Nc2ccc(SCC3CC3)cc2)sc1C(=O)c1c(Cl)cccc1Cl [DD(16)]")
"no (0)"
>>> assigned_class("CC(C)=CCSc1ccc(Nc2nc(N)c(C(=O)c3c(Cl)cccc3Cl)s2)cc1 [DD(24)]")
"no (0)"

Input line: Is inhibition at 0.1 µM for Nc1nc(Nc2ccc(S(=O)(=O)CCN3CCOCC3)cc2)sc1C(=O)c1c(Cl)cccc1Cl [DD(199)] at or above 30%?
Output line: yes (1)

###

Listed here: items and their measured pKi.
Molecular target: CDK2/cyclin A (Homo sapiens, UniProt P24941)
Construct: cyclin A: E. coli, then limited proteolysis
Experiment: Inhibition of CDK2/Cyclin A retinoblastoma kinase activity
Details: apparent Ki, Rb fragment substrate
Kindly note that pKi refers to -log10 of the concentration in mol/L and answer with the value alone.

Some compounds with known pKi results, for comparison:
>>> result("Nc1nc(Nc2ccc(S(=O)(=O)NCc3cc(Cl)ccc3Cl)cc2)sc1C(=O)c1c(F)cccc1F")
7.96
>>> result("CN(C)CCCNS(=O)(=O)c1ccc(Nc2nc(N)c(C(=O)c3c(F)cccc3F)s2)cc1")
7.85
>>> result("Nc1nc(Nc2ccc(S(=O)(=O)Nc3ccccc3)cc2)sc1C(=O)c1c(F)cccc1F")
7.77
>>> result("Nc1nc(Nc2ccc(S(=O)(=O)NCCCCCO)cc2)sc1C(=O)c1c(F)cccc1F")
8.59
>>> result("Nc1nc(Nc2ccc(S(=O)(=O)c3ccncc3)cc2)sc1C(=O)c1c(Cl)cccc1Cl")
6.72
>>> result("Nc1nc(Nc2ccc(S(=O)(=O)NCCCCO)cc2)sc1C(=O)c1c(F)cccc1F")
8.24

Input line: Which pKi is reported for this compound? CNCCNS(=O)(=O)c1ccc(Nc2nc(N)c(C(=O)c3c(F)cccc3F)s2)cc1
Output line: 8.03

###

Listed here: items and their measured % Inhib CDK4/D @ 0.03.
Target: CDK4/cyclin D3 (Homo sapiens)
Construct: made in house; host or cells: insect cells (baculovirus co-infection)
Test: Inhibition of CDK4/Cyclin D retinoblastoma kinase activity
Assay type: biochemical
Settings: test compound at 0.03 (unit cell empty, head line shifted; μM)
Answer as a quantity: numeral, then unit.

Some compounds with known % Inhib CDK4/D @ 0.03 results, for comparison:
>>> result("CC(C)(CO)CS(=O)(=O)c1ccc(Nc2nc(N)c(C(=O)c3c(Cl)cccc3Cl)s2)cc1 [DD(240)]")
"6.8%"
>>> result("Nc1nc(Nc2ccc(S(=O)(=O)CCN3CCCCC3)cc2)sc1C(=O)c1c(Cl)cccc1Cl [DD(211)]")
"−11%"
>>> result("Nc1nc(Nc2ccc(S(=O)(=O)CC3CO3)cc2)sc1C(=O)c1c(Cl)cccc1Cl (centres unmarked) [DD(212)]")
"−16%"
>>> result("CC(C)(CO)CS(=O)(=O)c1ccc(Nc2nc(N)c(C(=O)c3c(Cl)cccc3Cl)s2)cc1 [DD(200)]")
"−13%"
>>> result("COC(=O)/C=C/CS(=O)(=O)c1ccc(Nc2nc(N)c(C(=O)c3c(Cl)cccc3Cl)s2)cc1 [DD(203)]")
"−5.5%"

Input line: Which % Inhib CDK4/D @ 0.03 is reported for this compound? CN1CCCC1CCS(=O)(=O)c1ccc(Nc2nc(N)c(C(=O)c3c(Cl)cccc3Cl)s2)cc1 (centres unmarked) [DD(179)]
Output line: −1.1%

Input line: Which % Inhib CDK4/D @ 0.03 is reported for this compound? Nc1nc(Nc2ccc(S(=O)(=O)CC(=O)Nc3ccccc3)cc2)sc1C(=O)c1c(Cl)cccc1Cl [DD(215)]
Output line: −15%

Input line: Which % Inhib CDK4/D @ 0.03 is reported for this compound? CN1CCCC(CS(=O)(=O)c2ccc(Nc3nc(N)c(C(=O)c4c(Cl)cccc4Cl)s3)cc2)C1 (centres unmarked) [DD(227)]
Output line: −12%

Input line: Which % Inhib CDK4/D @ 0.03 is reported for this compound? CC(C)OC(=O)CS(=O)(=O)c1ccc(Nc2nc(N)c(C(=O)c3c(Cl)cccc3Cl)s2)cc1 [DD(183)]
Output line: 8.6%

Input line: Which % Inhib CDK4/D @ 0.03 is reported for this compound? CC(C)OC(=O)CS(=O)(=O)c1ccc(Nc2nc(N)c(C(=O)c3c(Cl)cccc3Cl)s2)cc1 [DD(223)]
Output line: −11%

Input line: Which % Inhib CDK4/D @ 0.03 is reported for this compound? CC(C)CCOC(=O)CS(=O)(=O)c1ccc(Nc2nc(N)c(C(=O)c3c(Cl)cccc3Cl)s2)cc1 [DD(192)]
Output line: 5.6%

Input line: Which % Inhib CDK4/D @ 0.03 is reported for this compound? CC(C)CCOC(=O)CS(=O)(=O)c1ccc(Nc2nc(N)c(C(=O)c3c(Cl)cccc3Cl)s2)cc1 [DD(193)]
Output line: −2.9%

Input line: Which % Inhib CDK4/D @ 0.03 is reported for this compound? CCN(CC)C(=O)CS(=O)(=O)c1ccc(Nc2nc(N)c(C(=O)c3c(Cl)cccc3Cl)s2)cc1 [DD(201)]
Output line: 3.5%

Input line: Which % Inhib CDK4/D @ 0.03 is reported for this compound? CN1CCCC(CS(=O)(=O)c2ccc(Nc3nc(N)c(C(=O)c4c(Cl)cccc4Cl)s3)cc2)C1 (centres unmarked) [DD(187)]
Output line: 6%

Input line: Which % Inhib CDK4/D @ 0.03 is reported for this compound? Nc1nc(Nc2ccc(S(=O)(=O)CC3CO3)cc2)sc1C(=O)c1c(Cl)cccc1Cl (centres unmarked) [DD(172)]
Output line: −26%

Input line: Which % Inhib CDK4/D @ 0.03 is reported for this compound? CC1(CS(=O)(=O)c2ccc(Nc3nc(N)c(C(=O)c4c(Cl)cccc4Cl)s3)cc2)CO1 (centres unmarked) [DD(220)]
Output line: −19%

Input line: Which % Inhib CDK4/D @ 0.03 is reported for this compound? NC(=O)CCS(=O)(=O)c1ccc(Nc2nc(N)c(C(=O)c3c(Cl)cccc3Cl)s2)cc1 [DD(228)]
Output line: 1%

Input line: Which % Inhib CDK4/D @ 0.03 is reported for this compound? CCOC(=O)CCS(=O)(=O)c1ccc(Nc2nc(N)c(C(=O)c3c(Cl)cccc3Cl)s2)cc1 [DD(182))]
Output line: −12%

Input line: Which % Inhib CDK4/D @ 0.03 is reported for this compound? C=CCCS(=O)(=O)c1ccc(Nc2nc(N)c(C(=O)c3c(Cl)cccc3Cl)s2)cc1 [DD(206)]
Output line: −11%

Input line: Which % Inhib CDK4/D @ 0.03 is reported for this compound? CC(C)CCCS(=O)(=O)c1ccc(Nc2nc(N)c(C(=O)c3c(Cl)cccc3Cl)s2)cc1 [DD(190)]
Output line: −21%

Input line: Which % Inhib CDK4/D @ 0.03 is reported for this compound? CCN(CC)C(=O)CS(=O)(=O)c1ccc(Nc2nc(N)c(C(=O)c3c(Cl)cccc3Cl)s2)cc1 [DD(161)]
Output line: −9.2%

Input line: Which % Inhib CDK4/D @ 0.03 is reported for this compound? CCCS(=O)(=O)c1ccc(Nc2nc(N)c(C(=O)c3c(Cl)cccc3Cl)s2)cc1 [DD(225)]
Output line: −5%

Input line: Which % Inhib CDK4/D @ 0.03 is reported for this compound? Nc1nc(Nc2ccc(S(=O)(=O)CC3CC3)cc2)sc1C(=O)c1c(Cl)cccc1Cl [DD(216)]
Output line: 12%

Input line: Which % Inhib CDK4/D @ 0.03 is reported for this compound? CC(C)CCS(=O)(=O)c1ccc(Nc2nc(N)c(C(=O)c3c(Cl)cccc3Cl)s2)cc1 [DD(213)]
Output line: −22%

Input line: Which % Inhib CDK4/D @ 0.03 is reported for this compound? CC(C)CCOC(=O)CS(=O)(=O)c1ccc(Nc2nc(N)c(C(=O)c3c(Cl)cccc3Cl)s2)cc1 [DD(191)]
Output line: −24%

Input line: Which % Inhib CDK4/D @ 0.03 is reported for this compound? CC1(CS(=O)(=O)c2ccc(Nc3nc(N)c(C(=O)c4c(Cl)cccc4Cl)s3)cc2)CO1 (centres unmarked) [DD(180)]
Output line: −14%

Input line: Which % Inhib CDK4/D @ 0.03 is reported for this compound? NC(=O)CCS(=O)(=O)c1ccc(Nc2nc(N)c(C(=O)c3c(Cl)cccc3Cl)s2)cc1 [DD(188)]
Output line: −11%
